Target entity: UniProt Q07343
Sequence (Q07343 whole entry): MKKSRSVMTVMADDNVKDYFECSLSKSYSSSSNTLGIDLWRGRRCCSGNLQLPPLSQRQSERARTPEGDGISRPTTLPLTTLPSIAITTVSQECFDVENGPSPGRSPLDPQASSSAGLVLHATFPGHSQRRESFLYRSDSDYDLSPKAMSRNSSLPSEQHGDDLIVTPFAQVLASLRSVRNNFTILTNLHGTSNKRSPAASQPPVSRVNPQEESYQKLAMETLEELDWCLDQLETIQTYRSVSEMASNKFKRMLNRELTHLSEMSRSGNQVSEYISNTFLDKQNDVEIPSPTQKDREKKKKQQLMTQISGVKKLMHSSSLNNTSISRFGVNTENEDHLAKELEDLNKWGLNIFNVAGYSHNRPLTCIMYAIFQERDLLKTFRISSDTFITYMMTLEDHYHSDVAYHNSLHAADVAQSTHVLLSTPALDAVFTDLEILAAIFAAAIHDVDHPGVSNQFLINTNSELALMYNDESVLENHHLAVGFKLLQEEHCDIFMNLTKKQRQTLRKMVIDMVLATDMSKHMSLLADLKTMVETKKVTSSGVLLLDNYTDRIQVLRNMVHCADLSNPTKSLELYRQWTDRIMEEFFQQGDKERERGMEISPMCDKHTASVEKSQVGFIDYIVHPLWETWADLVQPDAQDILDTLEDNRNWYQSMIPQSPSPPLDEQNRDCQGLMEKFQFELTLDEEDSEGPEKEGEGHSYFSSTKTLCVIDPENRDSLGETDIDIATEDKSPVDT
Parameter: IC50 (nM)
Your answer should be a plain number; it is taken to be in nM.

Compound	Target entity	Test value
CCCCCC1CCc2c(sc(NC(=O)c3ccccc3[N+](=O)[O-])c2C(N)=O)C1 (configuration not stated)	UniProt Q07343	100
Cc1cccc(C)c1C1CCCc2sc(NC(=O)c3ccccc3[N+](=O)[O-])c(C(N)=O)c21 (configuration not stated)	UniProt Q07343	5010
CC1(C)CCc2c(sc(NC(=O)c3ccccc3[N+](=O)[O-])c2C(N)=O)C1	UniProt Q07343	50.1

# input Tell me its IC50 on UniProt Q07343: CC1CCc2sc(NC(=O)c3ccccc3[N+](=O)[O-])c(C(N)=O)c2C1 (configuration not stated)
# output 2000

# input Tell me its IC50 on UniProt Q07343: CC1CCCc2sc(NC(=O)c3ccccc3[N+](=O)[O-])c(C(N)=O)c21 (configuration not stated)
# output 5010

# input Tell me its IC50 on UniProt Q07343: CC(C)(C)C1CCc2sc(NC(=O)c3ccccc3[N+](=O)[O-])c(C(N)=O)c2C1 (configuration not stated)
# output 1260
